// data source = paper PMC8848307

TARGET ENTITY: STAT3 protein (Homo sapiens)
ASSAY: Western blotting of STAT3 degradation in SU-DHL-1 cells
Format: cell-based
CONDITION SUMMARY: SU-DHL-1 cells, ratio of DC50
OBSERVABLE: times less potent than SD-36 in STAT3 degradation (times)

{"COMPOUND": "NC(=O)CC[C@H](NC(=O)[C@@H]1CC[C@@H]2CCN(CCCCCCC#Cc3cccc4c3CN(C3CCC(=O)NC3=O)C4=O)C[C@H](NC(=O)c3cc4cc(C(F)(F)P(=O)(O)O)ccc4[nH]3)C(=O)N21)C(=O)NC(c1ccccc1)c1ccccc1 (stereo partly shown)", "MEASURE UNIT": "times", "OBSERVED": 30}
{"COMPOUND": "NC(=O)CC[C@H](NC(=O)[C@@H]1CC[C@@H]2CCN(C(=O)OCCCCC#Cc3cccc4c3CN(C3CCC(=O)NC3=O)C4=O)C[C@H](NC(=O)c3cc4cc(C(F)(F)P(=O)(O)O)ccc4[nH]3)C(=O)N21)C(=O)NC(c1ccccc1)c1ccccc1 (stereo partly shown)", "MEASURE UNIT": "times", "OBSERVED": 2}
{"COMPOUND": "CNC(=O)[C@H](CCC(N)=O)NC(=O)[C@@H]1CC[C@@H]2CCN(C(=O)CCCCCC#Cc3cccc4c3CN(C3CCC(=O)NC3=O)C4=O)C[C@H](NC(=O)c3cc4cc(C(F)(F)P(=O)(O)O)ccc4[nH]3)C(=O)N21 (stereo partly shown)", "MEASURE UNIT": "times", "OBSERVED": 30}
{"COMPOUND": "NC(=O)CC[C@H](NC(=O)[C@@H]1CC[C@@H]2CCN(C(=O)CCCCCC#Cc3cccc4c3CN(C3CCC(=O)NC3=O)C4=O)C[C@H](NC(=O)c3cc4cc(C(F)(F)P(=O)(O)O)ccc4[nH]3)C(=O)N21)C(=O)NCc1ccccc1 (stereo partly shown)", "MEASURE UNIT": "times", "OBSERVED": 2}

----------
Some compounds, each annotated with its measured times less potent than SD-36 in STAT3 degradation.
TARGET ENTITY: STAT3 protein (Homo sapiens)
ASSAY: Western blotting of STAT3 degradation in Molm-16 cells
Assay type: cell-based
CONDITION SUMMARY: Molm-16 cells, ratio of DC50
OBSERVABLE: times less potent than SD-36 in STAT3 degradation

{"COMPOUND": "NC(=O)CC[C@H](NC(=O)[C@@H]1CC[C@@H]2CCN(C(=O)CCCCCC#Cc3cccc4c3C(=O)N(C3CCC(=O)NC3=O)C4=O)C[C@H](NC(=O)c3cc4cc(C(F)(F)P(=O)(O)O)ccc4[nH]3)C(=O)N21)C(=O)NC(c1ccccc1)c1ccccc1 (stereo partly shown)", "OBSERVED": "> 50 times"}
{"COMPOUND": "NC(=O)CC[C@H](NC(=O)[C@@H]1CC[C@@H]2CCN(C(=O)CCCCCCCCC#Cc3cccc4c3CN(C3CCC(=O)NC3=O)C4=O)C[C@H](NC(=O)c3cc4cc(C(F)(F)P(=O)(O)O)ccc4[nH]3)C(=O)N21)C(=O)NC(c1ccccc1)c1ccccc1 (stereo partly shown)", "OBSERVED": "2–3 times"}
{"COMPOUND": "NC(=O)CC[C@H](NC(=O)[C@@H]1CC[C@@H]2CCN(C(=O)CC(=O)N3CCC(C#Cc4cccc5c4CN(C4CCC(=O)NC4=O)C5=O)CC3)C[C@H](NC(=O)c3cc4cc(C(F)(F)P(=O)(O)O)ccc4[nH]3)C(=O)N21)C(=O)NC(c1ccccc1)c1ccccc1 (stereo partly shown)", "OBSERVED": "6 times"}
{"COMPOUND": "NC(=O)CC[C@H](NC(=O)[C@@H]1CC[C@@H]2CCN(C(=O)CCCCCCNc3cccc4c3CN(C3CCC(=O)NC3=O)C4=O)C[C@H](NC(=O)c3cc4cc(C(F)(F)P(=O)(O)O)ccc4[nH]3)C(=O)N21)C(=O)NC(c1ccccc1)c1ccccc1 (stereo partly shown)", "OBSERVED": "2–3 times"}

----------
TARGET ENTITY: STAT3 protein (Homo sapiens, UniProt P40763)
Sequence (P40763 whole entry): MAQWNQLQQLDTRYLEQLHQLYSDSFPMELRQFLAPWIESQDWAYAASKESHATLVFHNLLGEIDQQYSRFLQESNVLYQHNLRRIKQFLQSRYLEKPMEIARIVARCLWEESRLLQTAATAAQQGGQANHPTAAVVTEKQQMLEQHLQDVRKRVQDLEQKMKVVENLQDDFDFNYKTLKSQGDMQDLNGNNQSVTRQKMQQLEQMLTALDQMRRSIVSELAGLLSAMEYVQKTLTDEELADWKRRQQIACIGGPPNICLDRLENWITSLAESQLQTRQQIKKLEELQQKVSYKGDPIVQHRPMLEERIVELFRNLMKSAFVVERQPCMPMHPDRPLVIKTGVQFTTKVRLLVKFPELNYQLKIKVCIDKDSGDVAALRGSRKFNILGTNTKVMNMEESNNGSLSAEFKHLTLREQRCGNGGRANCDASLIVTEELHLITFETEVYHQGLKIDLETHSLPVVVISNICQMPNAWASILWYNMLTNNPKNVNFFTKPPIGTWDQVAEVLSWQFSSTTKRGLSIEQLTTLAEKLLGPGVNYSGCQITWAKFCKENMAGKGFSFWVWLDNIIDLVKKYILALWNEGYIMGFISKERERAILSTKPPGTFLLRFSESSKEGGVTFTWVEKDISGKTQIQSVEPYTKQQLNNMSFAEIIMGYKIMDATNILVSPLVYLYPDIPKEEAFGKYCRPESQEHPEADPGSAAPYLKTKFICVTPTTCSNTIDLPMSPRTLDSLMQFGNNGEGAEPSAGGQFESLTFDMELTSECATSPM
ASSAY: Western blotting of STAT3 degradation in Molm-16 cells
Type: cell-based
CONDITION SUMMARY: Molm-16 cells, ratio of DC50
Listing of recorded times less potent than SD-36 in STAT3 degradation by entry.
OBSERVABLE: times less potent than SD-36 in STAT3 degradation (times)

{"MOLECULE": "NC(=O)CC[C@H](NC(=O)[C@@H]1CC[C@@H]2CCN(C(=O)N3CCC(CCC#Cc4cccc5c4CN(C4CCC(=O)NC4=O)C5=O)CC3)C[C@H](NC(=O)c3cc4cc(C(F)(F)P(=O)(O)O)ccc4[nH]3)C(=O)N21)C(=O)NC(c1ccccc1)c1ccccc1 (stereo partly shown)", "MEASURE UNIT": "times", "PREFIX OPERATOR": "=", "OBSERVED": 3}
{"MOLECULE": "NC(=O)CC[C@H](NC(=O)[C@@H]1CC[C@@H]2CCN(CCCCCCC#Cc3cccc4c3CN(C3CCC(=O)NC3=O)C4=O)C[C@H](NC(=O)c3cc4cc(C(F)(F)P(=O)(O)O)ccc4[nH]3)C(=O)N21)C(=O)NC(c1ccccc1)c1ccccc1 (stereo partly shown)", "MEASURE UNIT": "times", "PREFIX OPERATOR": ">", "OBSERVED": 10}
{"MOLECULE": "NC(=O)CC[C@H](NC(=O)[C@@H]1CC[C@@H]2CCN(C(=O)CCN3CCC(C#Cc4cccc5c4CN(C4CCC(=O)NC4=O)C5=O)CC3)C[C@H](NC(=O)c3cc4cc(C(F)(F)P(=O)(O)O)ccc4[nH]3)C(=O)N21)C(=O)NC(c1ccccc1)c1ccccc1 (stereo partly shown)", "MEASURE UNIT": "times", "PREFIX OPERATOR": "=", "OBSERVED": 40}

----------
TARGET ENTITY: STAT3 protein (Homo sapiens)
ASSAY: Western blotting of STAT3 degradation in Molm-16 cells
Assay type: cell-based
CONDITION SUMMARY: Molm-16 cells, ratio of DC50
OBSERVABLE: times less potent than SD-36 in STAT3 degradation

{"COMPOUND": "NC(=O)CC[C@H](NC(=O)[C@@H]1CC[C@@H]2CCN(C(=O)CCCn3cc(C#Cc4cccc5c4CN(C4CCC(=O)NC4=O)C5=O)cn3)C[C@H](NC(=O)c3cc4cc(C(F)(F)P(=O)(O)O)ccc4[nH]3)C(=O)N21)C(=O)NC(c1ccccc1)c1ccccc1 (stereo partly shown)", "TARGET ENTITY": "STAT3 protein (Homo sapiens)", "OBSERVED": "3–4 times"}
{"COMPOUND": "NC(=O)CC[C@H](NC(=O)[C@@H]1CC[C@@H]2CCN(C(=O)CCCCCCCc3cccc4c3CN(C3CCC(=O)NC3=O)C4=O)C[C@H](NC(=O)c3cc4cc(C(F)(F)P(=O)(O)O)ccc4[nH]3)C(=O)N21)C(=O)NC(c1ccccc1)c1ccccc1 (stereo partly shown)", "TARGET ENTITY": "STAT3 protein (Homo sapiens)", "OBSERVED": "2–3 times"}
{"COMPOUND": "C/C(=C\\C(=O)N[C@H]1CN(C(=O)CCCCCC#Cc2cccc3c2CN(C2CCC(=O)NC2=O)C3=O)CC[C@H]2CC[C@@H](C(=O)N[C@@H](CCC(N)=O)C(=O)NC(c3ccccc3)c3ccccc3)N2C1=O)c1ccc(C(F)(F)P(=O)(O)O)cc1 (stereo partly shown)", "TARGET ENTITY": "STAT3 protein (Homo sapiens)", "OBSERVED": "> 70 times"}
{"COMPOUND": "NC(=O)CC[C@H](NC(=O)[C@@H]1CC[C@@H]2CCN(C(=O)CCCCCC#Cc3cccc4c3CN(C3CCC(=O)NC3=O)C4=O)C[C@H](NC(=O)c3cc4cc(C(F)(F)P(=O)(O)O)ccc4[nH]3)C(=O)N21)C(=O)NCc1ccccc1 (stereo partly shown)", "TARGET ENTITY": "STAT3 protein (Homo sapiens)", "OBSERVED": "4 times"}

----------
TARGET ENTITY: STAT3 protein (Homo sapiens, UniProt P40763)
ASSAY: Western blotting of STAT3 degradation in Molm-16 cells
Assay type: cell-based
CONDITION SUMMARY: Molm-16 cells, ratio of DC50
OBSERVABLE: times less potent than SD-36 in STAT3 degradation

{"MOLECULE": "NC(=O)CC[C@H](NC(=O)[C@@H]1CC[C@@H]2CCN(C(=O)CCCCCC#Cc3ccc4c(c3)C(=O)N(C3CCC(=O)NC3=O)C4)C[C@H](NC(=O)c3cc4cc(C(F)(F)P(=O)(O)O)ccc4[nH]3)C(=O)N21)C(=O)NC(c1ccccc1)c1ccccc1 (some centres unmarked) [Compound 29]", "TARGET ENTITY": "STAT3 protein (Homo sapiens, UniProt P40763)", "OBSERVED": "5–10 times"}
{"MOLECULE": "NC(=O)CC[C@H](NC(=O)[C@@H]1CC[C@@H]2CCN(C(=O)CCCCCC#Cc3ccc4c(c3)CN(C3CCC(=O)NC3=O)C4=O)C[C@H](NC(=O)c3cc4cc(C(F)(F)P(=O)(O)O)ccc4[nH]3)C(=O)N21)C(=O)NC(c1ccccc1)c1ccccc1 (some centres unmarked) [Compound 28]", "TARGET ENTITY": "STAT3 protein (Homo sapiens, UniProt P40763)", "OBSERVED": "5–10 times"}
